Assay: Influence of Lentinus edodes on the zootechnic performance of poultry (feeding trial)
Format: in vivo, chickens
Conditions: one day old chickens, feed ad libitum; Lentinus edodes at 0.5% of feed where present
Experimental: 20×40 one day old chickens were provided with following feeds: control feed, control feeds supplemented with a growth-promoting component, control feed supplemented with 0.5% fungi (Lentinus edodes) and control feed supplemented with a growth-promoting component and with 0.5% fungi (Lentinus edodes). […] At the end of the trial, chickens were weighed and feed conversion ratio's were determined (Table 1). Microbial contents in the gastrointestinal tract were determined by plate counting.
EXPERIMENTAL READOUT: Daily growth
Could you kindly put the unit after your number?

Field: example entries. Status: answers known.
MOLECULE: COC[C@H]1O[C@@H](OC2OC[C@@H]3O[C@]4(O[C@H]3[C@H]2OC(=O)C(C)C)O[C@H](C)[C@@](O)(C(C)=O)[C@@H]2OCO[C@H]24)[C@@H](OC)[C@@H](O)[C@@H]1O[C@@H]1O[C@H](C)[C@H](OC)[C@H](O[C@H]2C[C@@]3(C)OC4(C[C@@H](O)[C@H](O[C@H]5C[C@@H](O)[C@H](OC(=O)c6c(C)c(Cl)c(O)c(Cl)c6OC)[C@@H](C)O5)[C@@H](C)O4)O[C@@H]3[C@@H](C)O2)[C@H]1O (stereo partly shown) [control + Avilamycin, Avilamycin]
Daily growth: 53.99 g/chicken/day

MOLECULE: O=CO [control + formic acid, formic acid]
Daily growth: 52.18 g/chicken/day

MOLECULE: CC[C@@H](C(=O)[C@@H](C)[C@@H](O)[C@H](C)[C@@H]1O[C@@H]([C@@H](CC)C(=O)O)CC[C@@H]1C)[C@H]1O[C@]2(C=C[C@@H](O)[C@]3(CC[C@@](C)([C@H]4CC[C@](O)(CC)[C@H](C)O4)O3)O2)[C@H](C)C[C@@H]1C [control + Salinomycine, Salinomycine]
Daily growth: 54.06 g/chicken/day

The molecule OP(O)O [control + phophorous acid, phophorous acid] showed Daily growth equal to 52.23 g/chicken/day
